Test system: Mus musculus
RUN DESCRIPTION: Compound was evaluated in vivo for its effective dose against Murine candidiasis
Assay type: functional
Bridge positions count the residues as written; N and C are the ends. Square brackets hold non-standard residues; d marks the D form. Side chains are listed from the residue outwards. Peptide text beside a SMILES is read from it. * marks the point of attachment. Tetradecanoyl(3R-OH) = CCCCCCCCCCC[C@@H](O)CC(=O)*; Asp(3S-OH) = N[C@H](C(=O)O)[C@H](O)C(=O)O; Thr(4-Cl) = N[C@H](C(=O)O)[C@H](O)CCl; aThr = C[C@H](O)[C@H](N)C(=O)O; dDab = NCC[C@@H](N)C(=O)O; NHCH2CH2NMe2 = CN(C)CCN*; Dab = NCC[C@H](N)C(=O)O; Dhb = C/C=C(\N)C(=O)O
READOUT: ED50

In the examples that follow, each entry is paired with its recorded ED50.
COMPOUND	SYSTEM NAME	READOUT	ASSAY RESULT
C/C=C1\NC(=O)[C@H]([C@H](C)O)NC(=O)[C@H](CCN)NC(=O)[C@H](CCCCN)NC(=O)[C@H](CC(=O)NCC(=O)OC)NC(=O)[C@@H](CCN)NC(=O)[C@@H](NC(=O)C[C@H](O)CCCCCCCCCCC)COC(=O)[C@H]([C@H](O)CCl)NC(=O)[C@H]([C@H](O)C(=O)O)NC1=O ({Tetradecanoyl(3R-OH)}-S[dDab]D([Gly-OMe])K[Dab][aThr][Dhb][Asp(3S-OH)][Thr(4-Cl)]; ester 1-C)	Mus musculus	ED50	< 5 mg/kg
C/C=C1\NC(=O)[C@H]([C@H](C)O)NC(=O)[C@H](CCNC(=O)OCOC(=O)C(C)(C)C)NC(=O)[C@H](CCCCNC(=O)OCOC(=O)C(C)(C)C)NC(=O)[C@H](CC(=O)NCCN(C)C)NC(=O)[C@@H](CCNC(=O)OCOC(=O)C(C)(C)C)NC(=O)[C@@H](NC(=O)C[C@H](O)CCCCCCCCCCC)COC(=O)[C@H]([C@H](O)CCl)NC(=O)[C@H]([C@H](O)C(=O)O)NC1=O	Mus musculus	ED50	< 5 mg/kg

// next item, ED50 requested
Input: Given C/C=C1\NC(=O)[C@H]([C@H](C)O)NC(=O)[C@H](CCN)NC(=O)[C@H](CCCCN)NC(=O)[C@H](CC(=O)NCCN(C)C)NC(=O)[C@@H](CCN)NC(=O)[C@@H](NC(=O)C[C@H](O)CCCCCCCCCCC)COC(=O)[C@H]([C@H](O)CCl)NC(=O)[C@H]([C@H](O)C(=O)O)NC1=O ({Tetradecanoyl(3R-OH)}-S[dDab]D(NHCH2CH2NMe2)K[Dab][aThr][Dhb][Asp(3S-OH)][Thr(4-Cl)]; ester 1-C) , state its recorded ED50.
Output: < 5 mg/kg

* * *

RUN DESCRIPTION: The compound was tested for toxicity in tail vein irritation model; No
CONDITION LABEL: mouse

SMILES REPR	Toxicity
C/C=C1\NC(=O)[C@H]([C@H](C)O)NC(=O)[C@H](CCNC(=O)OCOC(=O)C(C)C)NC(=O)[C@H](CCCCNC(=O)OCOC(=O)C(C)C)NC(=O)[C@H](CC(=O)NCCN(CC)CC)NC(=O)[C@@H](CCNC(=O)OCOC(=O)C(C)C)NC(=O)[C@@H](NC(=O)C[C@H](O)CCCCCCCCCCC)COC(=O)[C@H]([C@H](O)CCl)NC(=O)[C@H]([C@H](O)C(=O)O)NC1=O	Not toxic
C/C=C1\NC(=O)[C@H]([C@H](C)O)NC(=O)[C@H](CCNC(=O)OCOC(=O)C(C)C)NC(=O)[C@H](CCCCNC(=O)OCOC(=O)C(C)C)NC(=O)[C@H](CC(=O)NC(C)(C)CC)NC(=O)[C@@H](CCNC(=O)OCOC(=O)C(C)C)NC(=O)[C@@H](NC(=O)C[C@H](O)CCCCCCCCCCC)COC(=O)[C@H]([C@H](O)CCl)NC(=O)[C@H]([C@H](O)C(=O)O)NC1=O	Not toxic
C/C=C1\NC(=O)[C@H]([C@H](C)O)NC(=O)[C@H](CCNC(=O)OCOC(=O)C(C)C)NC(=O)[C@H](CCCCNC(=O)OCOC(=O)C(C)C)NC(=O)[C@H](CC(=O)NCC(=O)OC)NC(=O)[C@@H](CCNC(=O)OCOC(=O)C(C)C)NC(=O)[C@@H](NC(=O)C[C@H](O)CCCCCCCCCCC)COC(=O)[C@H]([C@H](O)CCl)NC(=O)[C@H]([C@H](O)C(=O)O)NC1=O	Not toxic

src = ChEMBL document CHEMBL1134142
